experiment: Compound was tested for inhibition of constitutive bovine brain Nitric oxide synthase; type: tissue-based
recorded.metric: IC50 (µM)
Answer in µM, number only, no unit symbol.

Briefly, IC50 measured for `O=[N+]([O-])c1ccc2cn[nH]c2c1` : 2.5

---

Target: Nitric oxide synthase, inducible (Mus musculus)
Sequence (P29477 whole entry): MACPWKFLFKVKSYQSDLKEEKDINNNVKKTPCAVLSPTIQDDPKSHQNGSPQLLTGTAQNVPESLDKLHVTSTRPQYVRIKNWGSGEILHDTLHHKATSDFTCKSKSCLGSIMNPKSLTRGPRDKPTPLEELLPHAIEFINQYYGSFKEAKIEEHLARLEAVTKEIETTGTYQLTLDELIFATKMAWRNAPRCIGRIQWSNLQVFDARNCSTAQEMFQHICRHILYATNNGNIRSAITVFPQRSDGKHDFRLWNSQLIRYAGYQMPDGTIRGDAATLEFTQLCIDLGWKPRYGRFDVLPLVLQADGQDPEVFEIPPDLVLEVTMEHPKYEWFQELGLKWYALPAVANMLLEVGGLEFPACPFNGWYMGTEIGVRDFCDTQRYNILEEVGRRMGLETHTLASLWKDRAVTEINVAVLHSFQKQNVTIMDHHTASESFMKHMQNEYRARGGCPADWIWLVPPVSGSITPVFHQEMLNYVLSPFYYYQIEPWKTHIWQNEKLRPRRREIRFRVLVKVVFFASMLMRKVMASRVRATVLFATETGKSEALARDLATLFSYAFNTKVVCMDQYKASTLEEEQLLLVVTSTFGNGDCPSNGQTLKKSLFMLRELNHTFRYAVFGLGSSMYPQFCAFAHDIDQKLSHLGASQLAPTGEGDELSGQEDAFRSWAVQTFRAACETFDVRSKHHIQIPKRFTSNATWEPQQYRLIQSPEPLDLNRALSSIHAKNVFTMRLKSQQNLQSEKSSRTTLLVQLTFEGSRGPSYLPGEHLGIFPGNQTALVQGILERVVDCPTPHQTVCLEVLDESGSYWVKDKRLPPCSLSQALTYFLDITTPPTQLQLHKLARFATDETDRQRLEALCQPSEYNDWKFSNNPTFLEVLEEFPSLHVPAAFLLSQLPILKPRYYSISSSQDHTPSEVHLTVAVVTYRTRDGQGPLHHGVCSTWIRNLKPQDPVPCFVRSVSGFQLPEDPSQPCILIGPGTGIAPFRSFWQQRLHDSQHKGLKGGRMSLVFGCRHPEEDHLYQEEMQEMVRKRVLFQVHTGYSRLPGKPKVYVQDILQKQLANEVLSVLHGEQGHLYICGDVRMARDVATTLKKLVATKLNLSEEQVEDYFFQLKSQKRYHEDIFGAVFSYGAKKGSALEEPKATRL
Assay: Compound was tested for inhibition of inducible Nitric oxide synthase in activated murine macrophages.
Item-by-item account of IC50
Expressed in µM, but write only the number.

# lookup: `c1ccc(-n2ccnc2)cc1` on Nitric oxide synthase, inducible (Mus musculus), IC50 = 8

Form field, IC50 with Nitric oxide synthase, inducible (Mus musculus), item `O=[N+]([O-])c1ccc2cn[nH]c2c1` : 20

***
// returns IC50 for `O=c1nnc2ccc3c(c2[nH]1)=CCCC=3` with Nitric oxide synthase, inducible (Mus musculus); value = 50

All figures here come from ChEMBL document CHEMBL1151054.
